- experimental-target: ALK2R206H (mutant ALK2, N-terminally tagged with GST) (Homo sapiens, UniProt Q04771, R206H)
- test: ALK binding assay (LANTHASCREEN TR-FRET competitive binding, displacement of Kinase Tracer 178)
- experimental-parameters: read-out: Binding Assay (IC50 class)
property-label: IC50

Form: compound = CC(C)CC(=O)N1CCN(c2ccnc3[nH]c(-c4cnn(C)c4)cc23)CC1 [Compound 32] ; IC50 = 10 to 50 nM

Form: compound = COc1ccc(-c2cc3c(N4CCN(C(=O)C5CC5)CC4)ccnc3[nH]2)cc1 [Compound 60] ; IC50 = ≤ 10 nM

Form: compound = N#CC1(c2ccc(-c3cc4c(N5CCN(C(=O)C6CC6)CC5)ccnc4[nH]3)cc2)CC1 [Compound 241] ; IC50 = ≤ 10 nM

Form: compound = COC1(c2ccc(-c3cc4c(N5CCN(C(=O)OC6COC6)CC5)ccnc4[nH]3)nc2)CCN(C[C@@H](C)F)CC1 [Compound 479] ; IC50 = ≤ 10 nM

====

Please provide measured IC50 for the entries that follow.
- experimental-target: human ALK2 R206H (Homo sapiens, UniProt Q04771, R206H)
- test: Cell-based ALK2-R206H cell activity assay (Smad1-Ser463/Ser465 phosphorylation by AlphaLISA in HEK293-ALK2-R206H cells)
- experimental-parameters: phospho-Smad1 AlphaLISA, read-out: Cell Line (Cell Assay, IC50 class)

Form: compound = CCOC(=O)N1CCN(c2ccnc3[nH]c(-c4cnn(C)c4)c(C)c23)CC1 ; IC50 = ≤ 100 nM

Form: compound = Cc1nc(-c2cc3c(N4CCN(C(=O)OC5CC5)CC4)ccnc3[nH]2)cn1C ; IC50 = ≤ 100 nM

Form: compound = Cc1c(-c2cc3c(N4CCN(C(=O)[C@H]5CC[C@H](C#N)CC5)CC4)ccnc3[nH]2)cnn1C ; IC50 = 100 to 500 nM

Form: compound = CCc1csc(-c2cc3c(N4CCN(C(=O)OC5COC5)CC4)ccnc3[nH]2)n1 ; IC50 = 100 to 500 nM

====

- experimental-target: human ALK2 R206H (Homo sapiens, UniProt Q04771, R206H)
- Construct: expressed in transfected cells; host or cells: HEK293 (ATCC CRL1573), lentivirus transduction, blasticidin selection
- test: Cell-based ALK2-R206H cell activity assay (Smad1-Ser463/Ser465 phosphorylation by AlphaLISA in HEK293-ALK2-R206H cells)
- experimental-parameters: phospho-Smad1 AlphaLISA, read-out: Cell Line (Cell Assay, IC50 class)
pIC50: −log10 of the molar value.
Please provide measured pIC50 for the entries that follow.

Form: molecule = O=C(OC1COC1)N1CCN(c2ccnc3[nH]c(-c4cnn(C(F)F)c4)c(Cl)c23)CC1 ; pIC50 = ≥ 7.00

Form: molecule = Cn1cc(-c2[nH]c3nccc(N4CCN(C(=O)OC5COC5)CC4)c3c2F)cn1 ; pIC50 = 6.30 to 7.00

Form: molecule = CCN1CCC(c2ccc(-c3cc4c(N5CCN(C(=O)C6CC6)CC5)ccnc4[nH]3)cc2)C(F)(F)C1 (centres unmarked) ; pIC50 = ≥ 7.00

Form: molecule = N#Cc1c(-c2cnn(C(F)F)c2)[nH]c2nccc(N3CCN(C(=O)OC4COC4)CC3)c12 ; pIC50 = ≥ 7.00

Form: molecule = CCN1CCN(c2ccc(-c3cc4c(N5CCN(C(=O)C6CC6)CC5)ccnc4[nH]3)cc2)CC1 ; pIC50 = ≥ 7.00

Form: molecule = Cc1nc(-c2cc3c(N4CCN(C(=O)O[C@@H]5CCC5(F)F)CC4)ccnc3[nH]2)cn1C ; pIC50 = ≥ 7.00

Form: molecule = CCOC(=O)N1CCN(c2ccnc3[nH]c(-c4ccc(C5(OC)CCOCC5)cc4C#N)cc23)CC1 ; pIC50 = ≥ 7.00

Form: molecule = Cn1ncc(-c2cc3c(N4CCN(C(=O)OC5COC5)CC4)ccnc3[nH]2)c1C#N ; pIC50 = 6.30 to 7.00

====

Please provide measured IC50 for the entries that follow.
- experimental-target: human ALK2 R206H (Homo sapiens, UniProt Q04771, R206H)
- Sequence (Q04771 21-509 R206H): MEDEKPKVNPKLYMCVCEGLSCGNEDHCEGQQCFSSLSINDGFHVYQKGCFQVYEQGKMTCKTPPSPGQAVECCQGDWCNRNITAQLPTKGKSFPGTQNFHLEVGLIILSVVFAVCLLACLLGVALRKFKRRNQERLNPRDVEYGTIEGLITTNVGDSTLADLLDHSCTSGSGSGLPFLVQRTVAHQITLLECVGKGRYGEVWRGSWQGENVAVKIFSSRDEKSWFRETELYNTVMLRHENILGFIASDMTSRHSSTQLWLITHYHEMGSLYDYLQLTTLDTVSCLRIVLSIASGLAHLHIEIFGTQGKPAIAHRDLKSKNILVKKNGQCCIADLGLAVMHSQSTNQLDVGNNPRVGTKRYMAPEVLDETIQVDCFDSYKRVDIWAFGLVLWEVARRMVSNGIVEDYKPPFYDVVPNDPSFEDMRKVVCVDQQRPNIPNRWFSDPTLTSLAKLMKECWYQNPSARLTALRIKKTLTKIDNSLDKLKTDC
- test: Cell-based ALK2-R206H cell activity assay (Smad1-Ser463/Ser465 phosphorylation by AlphaLISA in HEK293-ALK2-R206H cells)
- experimental-parameters: phospho-Smad1 AlphaLISA, read-out: Cell Line (Cell Assay, IC50 class)

The observed IC50 for Cc1cc(-c2cc3c(N4CCN(C(=O)OC5COC5)CC4)ccnc3[nH]2)on1 when tested with human ALK2 R206H (Homo sapiens, UniProt Q04771, R206H) stands at 100 to 500 nM

The observed IC50 for CCOC(=O)N1CCN(c2ccnc3[nH]c(-c4cnn(C)c4)c(CO)c23)CC1 when tested with human ALK2 R206H (Homo sapiens, UniProt Q04771, R206H) stands at 100 to 500 nM

The observed IC50 for Cn1cc(-c2[nH]c3nccc(N4CCN(C(=O)OCC(F)F)CC4)c3c2Cl)cn1 when tested with human ALK2 R206H (Homo sapiens, UniProt Q04771, R206H) stands at ≤ 100 nM

The observed IC50 for CC(C)(C)c1ccc(-c2cc3c(N4CCN(C(=O)C5CC5)CC4)ccnc3[nH]2)cc1 when tested with human ALK2 R206H (Homo sapiens, UniProt Q04771, R206H) stands at 100 to 500 nM

The observed IC50 for CC#Cc1c(-c2cn(C)c(C)n2)[nH]c2nccc(N3CCN(C(=O)OC4COC4)CC3)c12 when tested with human ALK2 R206H (Homo sapiens, UniProt Q04771, R206H) stands at ≤ 100 nM

The observed IC50 for Cc1nc(-c2cc3c(N4CCN(C(=O)O[C@H]5C[C@@H](F)C5)CC4)ccnc3[nH]2)cn1C when tested with human ALK2 R206H (Homo sapiens, UniProt Q04771, R206H) stands at ≤ 100 nM

The observed IC50 for Cc1nc(-c2cc3c(N4CCN(C(=O)O[C@@H]5CC(F)(F)C5(F)F)CC4)ccnc3[nH]2)cn1C when tested with human ALK2 R206H (Homo sapiens, UniProt Q04771, R206H) stands at ≤ 100 nM

The observed IC50 for CCN1CCN(c2ccc(-c3cc4c(N5CCN(C(=O)C6CC6)CC5)ccnc4[nH]3)c(Cl)c2)CC1 when tested with human ALK2 R206H (Homo sapiens, UniProt Q04771, R206H) stands at ≤ 100 nM

The observed IC50 for Cn1ncc(-c2[nH]c3nccc(N4CCN(C(=O)OC5COC5)CC4)c3c2C#N)n1 when tested with human ALK2 R206H (Homo sapiens, UniProt Q04771, R206H) stands at 100 to 500 nM

The observed IC50 for N#CC1(c2ccc(-c3cc4c(N5CCN(C(=O)C6CC6)CC5)ccnc4[nH]3)c(F)c2)CC1 when tested with human ALK2 R206H (Homo sapiens, UniProt Q04771, R206H) stands at ≤ 100 nM

The observed IC50 for Cc1nc(-c2cc3c(N4CCN(C(=O)OC5COC5)CC4)ccnc3[nH]2)co1 when tested with human ALK2 R206H (Homo sapiens, UniProt Q04771, R206H) stands at 100 to 500 nM

The observed IC50 for Cc1nc(-c2cc3c(N4CCN(C(=O)OC5COC5)CC4)ccnc3[nH]2)cs1 when tested with human ALK2 R206H (Homo sapiens, UniProt Q04771, R206H) stands at ≤ 100 nM

The observed IC50 for Cc1nc(-c2[nH]c3nccc(N4CCN(C(=O)OC5COC5)CC4)c3c2Cl)cs1 when tested with human ALK2 R206H (Homo sapiens, UniProt Q04771, R206H) stands at ≤ 100 nM

The observed IC50 for CCOC(=O)N1CCN(c2ccnc3[nH]c(-c4ccc(C5(O)CCOCC5)cn4)cc23)CC1 when tested with human ALK2 R206H (Homo sapiens, UniProt Q04771, R206H) stands at ≤ 100 nM

The observed IC50 for CC#Cc1c(-c2cnn(C)c2)[nH]c2nccc(N3CCN(C(=O)OC4COC4)CC3)c12 when tested with human ALK2 R206H (Homo sapiens, UniProt Q04771, R206H) stands at ≤ 100 nM

The observed IC50 for CO[C@H]1C[C@H](OC(=O)N2CCN(c3ccnc4[nH]c(-c5cnn(C)c5)cc34)CC2)C1 when tested with human ALK2 R206H (Homo sapiens, UniProt Q04771, R206H) stands at ≤ 100 nM
